# System Tested: PAF receptor (specific receptor binding site on rabbit platelet plasma membranes) (Oryctolagus cuniculus)
# Construct: 100 μg of the platelet plasma membrane suspension; from tissue; host or cells: rabbit platelet plasma membranes
# Sequence (G1TEI7 1-342): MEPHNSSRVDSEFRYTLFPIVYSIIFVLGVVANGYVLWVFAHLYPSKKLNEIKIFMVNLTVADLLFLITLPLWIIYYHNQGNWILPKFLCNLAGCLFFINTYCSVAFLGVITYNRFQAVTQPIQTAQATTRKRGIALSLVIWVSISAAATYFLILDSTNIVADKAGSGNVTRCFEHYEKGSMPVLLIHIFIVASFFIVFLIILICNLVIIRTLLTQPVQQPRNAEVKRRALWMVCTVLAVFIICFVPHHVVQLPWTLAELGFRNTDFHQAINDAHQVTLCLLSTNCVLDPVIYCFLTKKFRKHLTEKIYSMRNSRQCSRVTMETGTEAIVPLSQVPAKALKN
# Method Summary: inhibition of 3H-PAF binding to rabbit platelet plasma membrane
# Condition Label: Table (B), 3H-PAF, pH 7.5, 0° C.
Assay Readout: IC50 (nM)
Your answer should be a plain number; it is taken to be in nM.

Input line: Which IC50 is listed for CCCOc1c(Br)cc([C@@H]2CC[C@@H](c3cc(OC)c(OC)c(OC)c3)[C@H]2OC)cc1OC (relative stereo) [OCH3, Br] ?
Output line: 47

Values from patent US5132463A
